Answer each item with its documented IC50.
Molecular target: KDM5B (Homo sapiens (Human), UniProt Q9UGL1)
Sequence (Q9UGL1 whole entry): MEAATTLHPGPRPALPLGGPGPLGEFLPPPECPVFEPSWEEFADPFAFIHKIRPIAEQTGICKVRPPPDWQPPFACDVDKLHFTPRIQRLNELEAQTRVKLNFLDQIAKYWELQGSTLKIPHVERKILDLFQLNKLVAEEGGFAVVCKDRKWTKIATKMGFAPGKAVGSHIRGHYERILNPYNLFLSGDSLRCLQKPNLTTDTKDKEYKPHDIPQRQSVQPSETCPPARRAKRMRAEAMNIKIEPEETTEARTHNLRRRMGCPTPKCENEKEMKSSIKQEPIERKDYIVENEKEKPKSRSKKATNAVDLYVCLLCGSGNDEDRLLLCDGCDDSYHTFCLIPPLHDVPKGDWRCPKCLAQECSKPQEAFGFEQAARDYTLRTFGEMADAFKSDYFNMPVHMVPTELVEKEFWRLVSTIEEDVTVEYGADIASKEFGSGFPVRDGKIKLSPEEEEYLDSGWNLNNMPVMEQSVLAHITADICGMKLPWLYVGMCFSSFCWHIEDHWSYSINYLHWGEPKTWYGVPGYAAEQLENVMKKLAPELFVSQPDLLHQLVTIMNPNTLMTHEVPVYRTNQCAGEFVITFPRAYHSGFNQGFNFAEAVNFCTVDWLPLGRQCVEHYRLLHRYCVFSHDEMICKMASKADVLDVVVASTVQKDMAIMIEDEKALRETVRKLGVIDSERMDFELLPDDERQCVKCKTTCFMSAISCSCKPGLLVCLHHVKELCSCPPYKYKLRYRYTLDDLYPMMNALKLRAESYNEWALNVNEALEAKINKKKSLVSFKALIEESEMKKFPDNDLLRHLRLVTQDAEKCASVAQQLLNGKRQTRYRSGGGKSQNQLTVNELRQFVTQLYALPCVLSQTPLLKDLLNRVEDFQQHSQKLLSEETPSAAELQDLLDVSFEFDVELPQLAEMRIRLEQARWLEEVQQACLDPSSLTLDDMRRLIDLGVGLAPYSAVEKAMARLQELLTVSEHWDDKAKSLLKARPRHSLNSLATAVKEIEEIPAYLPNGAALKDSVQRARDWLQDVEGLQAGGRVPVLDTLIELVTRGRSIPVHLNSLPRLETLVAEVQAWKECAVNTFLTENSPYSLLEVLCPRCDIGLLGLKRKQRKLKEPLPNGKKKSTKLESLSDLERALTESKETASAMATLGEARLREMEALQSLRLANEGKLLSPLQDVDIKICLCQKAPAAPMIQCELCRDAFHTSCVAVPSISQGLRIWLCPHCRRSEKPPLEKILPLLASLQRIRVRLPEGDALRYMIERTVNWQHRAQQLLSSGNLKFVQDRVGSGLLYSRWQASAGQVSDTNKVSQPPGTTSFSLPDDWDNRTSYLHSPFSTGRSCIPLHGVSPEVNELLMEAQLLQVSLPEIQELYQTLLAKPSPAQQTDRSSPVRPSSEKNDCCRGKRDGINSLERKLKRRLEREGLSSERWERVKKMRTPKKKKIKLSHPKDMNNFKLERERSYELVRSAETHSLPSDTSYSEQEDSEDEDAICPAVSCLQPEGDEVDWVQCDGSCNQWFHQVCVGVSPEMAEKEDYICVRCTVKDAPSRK
Assay: KDM5B TR-FRET Enzyme Activity Assay
Settings: LANCE TR-FRET; 5 nM full-length recombinant KDM5B; ten point titration 100000 nM to 5.08 nM
Experimental: KDM5B TR-FRET Enzyme Activity Assay KDM5B enzymatic activity was determined with the LANCE (Lanthanide Chelate Excite) TR-FRET (Time-resolved fluorescence resonance energy transfer) assay. […] After 60 minutes incubation with detection reagents, reaction plates were read on a PerkinElmer EnVision plate reader using standard TR-FRET protocol. […] IC50 values were determined by 4 parameter robust fit of TR-FRET ratio values vs. (Log 10) compound concentrations.
Numbers only, in nM.

Worked cases, answers included:
CC(C)c1c(-c2ccc(N3CCOCC3)cc2)[nH]c2ncnn2c1=O : 7.52
CC(C)c1c(-c2ccc(C(F)(F)CO)nc2)[nH]c2ncnn2c1=O : 30.7
CCc1[nH]c2ncnn2c(=O)c1C : 31900
CC(C)c1c(-c2ccc(N3CCCC3)cc2)[nH]c2ncnn2c1=O : 20.1
CC(C)c1c(-c2ccc(NS(C)(=O)=O)cc2)[nH]c2ncnn2c1=O : 20.1

Could I get IC50 for every one of these entries?
1. CC(C)c1c(-c2cc(C(F)(F)F)nn2C)[nH]c2ncnn2c1=O
2. CC(C)c1c(-c2cn[nH]c2)[nH]c2ncnn2c1=O
3. COC/C=C/c1[nH]c2ncnn2c(=O)c1C(C)C
4. CC(C)c1c(C2=CCC(C#N)CC2)[nH]c2ncnn2c1=O (stereo not shown)
5. CC(C)c1c(C2=CC(C)(C)OC(C)(C)C2)[nH]c2ncnn2c1=O

1. 1220
2. 13.3
3. 27.7
4. 110
5. 306

* * *

Field: IC50. Provide a value for each of the molecules that follow.
target: KDM5B (Homo sapiens (Human), UniProt Q9UGL1); test: KDM5B TR-FRET Enzyme Activity Assay; details: LANCE TR-FRET; 5 nM full-length recombinant KDM5B; ten point titration 100000 nM to 5.08 nM

Below, each entry is followed by its recorded IC50 result.
Cc1nn(C)c(C)c1-c1[nH]c2ncnn2c(=O)c1C(C)C : 2170 nM
O=c1c(C2CCC2)c(-c2ccc(F)cc2)[nH]c2ncnn12 : 1030 nM
CC(C)c1c(-c2ccc(CN3CCCCC3)cc2)[nH]c2ncnn2c1=O : 16.8 nM
O=c1cc(-c2ccco2)[nH]c2ncnn12 : 6780 nM
CC(C)c1cc(=O)n2ncnc2[nH]1 : 82300 nM
CC(C)c1c(-c2ccc(N3CCCCC3)nc2)[nH]c2ncnn2c1=O : 10.4 nM
CC(C)n1cc(-c2cc(=O)n3ncnc3[nH]2)cn1 : 1530 nM
CC(C)c1c(-c2cnn(CCN3CCOCC3)c2)[nH]c2ncnn2c1=O : 6.96 nM

# return recorded IC50 for entry CC(C)c1c(-c2ccnc(C(F)(F)F)c2)[nH]c2ncnn2c1=O
17 nM

* * *

target: UniProtKB Q9UGL1; assay: KDM5B TR-FRET Enzyme Activity Assay; details: LANCE TR-FRET; 5 nM full-length recombinant KDM5B; ten point titration 100000 nM to 5.08 nM
result.type: pIC50
Answers are plain numbers, as −log10 of the molar value.

Some solved entries appear below for comparison.
CC(C)c1c(-c2cnn(CCO)c2)[nH]c2ncnn2c1=O [Example 11-111] : 7.93
CC(C)c1c(-c2cnc3ccccc3c2)[nH]c2ncnn2c1=O [Example 11-76] : 7.62
CC(C)c1c(-c2cc(C(C)(C)C)n[nH]2)[nH]c2ncnn2c1=O [Example 11-135] : 7.21
CC(C)c1c(-c2ccc(-n3cccn3)cc2F)[nH]c2ncnn2c1=O [Example 11-98] : 6.91
CC(C)c1c(-c2cccc(CO)c2)[nH]c2ncnn2c1=O [Example 11-59] : 7.58
CC(C)c1c(-c2cncnc2)[nH]c2ncnn2c1=O [Example 11-26] : 6.99
CCOC(=O)c1[nH]c2ncnn2c(=O)c1Cl [Example 8-10] : 5.20
CC(C)c1c(-c2ccccc2F)[nH]c2ncnn2c1=O [Example 11-32] : 6.41

// next entry
Read the entry CC(C)c1c(-c2ccc(F)cc2)[nH]c2ncnn2c1=O [Example 11-11] and write its reported pIC50.
6.80
